Below is a list of entries, each paired with its recorded EC50 value.
Target: T1, DcR3 (UniProt O95407 30-300, limits assumed)
T1 construct: the construct is not described; also called decoy receptor DcR3; TNFRSF6B
T1 sequence (looked up): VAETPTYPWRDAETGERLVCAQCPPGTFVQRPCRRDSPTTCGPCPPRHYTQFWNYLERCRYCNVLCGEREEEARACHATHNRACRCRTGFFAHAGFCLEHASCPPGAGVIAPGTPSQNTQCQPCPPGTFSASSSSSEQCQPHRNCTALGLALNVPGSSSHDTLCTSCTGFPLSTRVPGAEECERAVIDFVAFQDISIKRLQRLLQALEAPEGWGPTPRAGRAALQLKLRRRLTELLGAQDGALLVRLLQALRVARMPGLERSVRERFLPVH
Assay: ELISA, DcR3
Your answer should be a plain number; it is taken to be in nM.

**Query** Fill blank: measured EC50 of the binder TL1W92 (His-TEV-TL1A M158Y) (ligand, also called TL1W92 (M158Y)) HHHHHHENLYFQGLKGQEFAPSHQQVYAPLRADGDKPRAHLTVVRQTPTQHFKNQFPALHWEHELGLAFTKNRMNYTNKFLLIPESGDYFIYSQVTFRGYTSECSEIRQAGRPNKPDSITVVITKVTDSYPEPTQLLMGTKSVCEVGSNWFQPIYLGAMFSLQEGDKLMVNVSDISLVDYTKEDKTFFGAFLL is ____.
**Result** 12.6

**Query** Fill blank: measured EC50 of the binder TL1W124 (His-TEV-TL1A N207K) (ligand, also called TL1W124 (N207K)) HHHHHHENLYFQGLKGQEFAPSHQQVYAPLRADGDKPRAHLTVVRQTPTQHFKNQFPALHWEHELGLAFTKNRMNYTNKFLLIPESGDYFIYSQVTFRGMTSECSEIRQAGRPNKPDSITVVITKVTDSYPEPTQLLMGTKSVCEVGSKWFQPIYLGAMFSLQEGDKLMVNVSDISLVDYTKEDKTFFGAFLL is ____.
**Result** 15.4
